Listed here are compounds together with their documented pIC50.
- assayText: Cytotoxicity against vinblastine-resistant CEM/VLB100 cells after 72 hrs
- Assay type: cell-based
- settings: Homo sapiens, CEM/VLB100, 72 h
Here pIC50 is given on a logarithmic scale as minus log10 of the concentration in mol/L.

Sample records with pIC50:
• CCCCCCC[C@@H]1CC(=O)N[C@@H](C(C)C)C(=O)N[C@@H]([C@@H](O)C(C)C)C(=O)N[C@@H](C)C(=O)N[C@H]([C@@H](O)C(C)C)C(=O)N[C@@H](CCC(N)=O)C(=O)N(C)[C@@H]([C@@H](C)CC)C(=O)N[C@H]([C@@H](O)C(N)=O)C(=O)N[C@@H]([C@@H](C)O)C(=O)N2C[C@H](O)C[C@H]2C(=O)N[C@H](CC(C)C)C(=O)N[C@@H]([C@@H](C)O)C(=O)N1 = 5.87
• CCCCCCC[C@@H]1CC(=O)N[C@@H](C(C)C)C(=O)N[C@H]([C@@H](O)C(C)C)C(=O)N[C@@H](C)C(=O)N[C@H](CC(C)C)C(=O)N[C@@H](CCC(N)=O)C(=O)N(C)[C@@H]([C@@H](C)CC)C(=O)N[C@H]([C@@H](O)C(N)=O)C(=O)N[C@@H]([C@@H](C)O)C(=O)N2CCC[C@H]2C(=O)N[C@H](CC(C)C)C(=O)N[C@@H]([C@@H](C)O)C(=O)N1 = 5.48
• CCCCCCC[C@@H]1CC(=O)N[C@@H](C(C)C)C(=O)N[C@@H]([C@@H](O)C(C)C)C(=O)N[C@@H](C)C(=O)N[C@H]([C@@H](O)C(C)C)C(=O)N[C@@H](CCC(N)=O)C(=O)N(C)[C@@H]([C@@H](C)CC)C(=O)N[C@H]([C@@H](O)C(N)=O)C(=O)N[C@@H]([C@@H](C)O)C(=O)N2CCC[C@H]2C(=O)N[C@H](CC(C)C)C(=O)N[C@@H]([C@@H](C)O)C(=O)N1 = 5.99
• COc1cccc2c1C(=O)c1c(O)c3c(c(O)c1C2=O)C[C@@](O)(C(=O)CO)C[C@@H]3O[C@H]1C[C@H](N)[C@H](O)[C@H](C)O1 = 5.43

--- query ---
What value of pIC50 has been recorded for this entry: `CC[C@]1(O)C[C@@H]2CN(CCc3c([nH]c4ccccc34)[C@@](C(=O)OC)(c3cc4c(cc3OC)N(C)[C@H]3[C@@](O)(C(=O)OC)[C@H](OC(C)=O)[C@]5(CC)C=CCN6CC[C@]43[C@@H]65)C2)C1` 6.45

====

- assayText: Cytotoxicity against teniposide-resistant CEM/VM1 cells after 72 hrs
- Assay type: cell-based
- settings: Homo sapiens, CEM-VM1, 72 h
reportedEndpoint: pIC50
Please note pIC50 is a logarithmic value: minus log10 of concentration in mol/L. Answer with that number alone.

• CC[C@]1(O)C[C@@H]2CN(CCc3c([nH]c4ccccc34)[C@@](C(=O)OC)(c3cc4c(cc3OC)N(C)[C@H]3[C@@](O)(C(=O)OC)[C@H](OC(C)=O)[C@]5(CC)C=CCN6CC[C@]43[C@@H]65)C2)C1 = 8.10

// next item, pIC50 requested
Report pIC50 for `CCCCCCC[C@@H]1CC(=O)N[C@@H](C(C)C)C(=O)N[C@@H]([C@@H](O)C(C)C)C(=O)N[C@@H](C)C(=O)N[C@H]([C@@H](O)C(C)C)C(=O)N[C@@H](CCC(N)=O)C(=O)N(C)[C@@H]([C@@H](C)CC)C(=O)N[C@H]([C@@H](O)C(N)=O)C(=O)N[C@@H]([C@@H](C)O)C(=O)N2CCC[C@H]2C(=O)N[C@H](CC(C)C)C(=O)N[C@@H]([C@@H](C)O)C(=O)N1` please. 5.86
